# assay: NCI Yeast Anticancer Drug Screen. Data for the mec2-1 strain (AID 157)
# conditions: S. cerevisiae mec2-1 strain, at 50.0 µM, stronger effect = higher value
About 79,000 compounds went through this panel and 15% of them were active in at least one assay; those are over-represented in the sample as a whole. Where a SMILES comes first, the peptide text is derived from it. The star is where a group is joined. Boc = CC(C)(C)OC(=O)*
result_type: growth inhibition (%)
Return type: number; implicit unit %.

Here are 6 compounds together with their reported answers.
compound="COC(=O)C(C)NC(=O)C(C)NC(=O)c1cc(OC)c(OC)c(OC)c1 (centres undefined)" scale_unit=% quantitative_readout=17.8
compound=CCOC(=O)/C=C/C(=O)N(C)c1ccccc1 scale_unit=% quantitative_readout=-7.15
compound="COC(=O)C(Cc1ccccc1)NC(=O)C(Cc1ccccc1)NC(=O)OC(C)(C)C (stereo not drawn) (Boc-Phe-Phe-OMe; configuration not given here)" scale_unit=% quantitative_readout=-4.3
compound=CCCSc1nnc(SCCC)c2[nH]cnc12 scale_unit=% quantitative_readout=-5.45
compound=CC(=O)Nc1ccc(C(=O)N2C(=N)C(C#N)=C(O)/C2=C\c2ccc(Cl)c(Cl)c2)cc1 scale_unit=% quantitative_readout=-5.7
compound=CC(=O)CC(=O)Nc1ccc(-c2ccccc2)cc1 scale_unit=% quantitative_readout=3.95

Noted for COc1cc(NCCNCC(C)(C)C)c2ncccc2c1 : its growth inhibition reads 18.7

Noted for Cc1cccc(C)c1NC(=O)C(=O)C(C(=O)c1ccccc1-c1ccccc1)C1OC(=O)c2ccccc21 (centres undefined) : its growth inhibition reads 15.4

Noted for CC(=O)c1cc2c(cc1C)C(C(C)C)CCC2(C)C (centres undefined) : its growth inhibition reads -14.6

Noted for CCC(=O)OCc1ccc(Cl)cc1 : its growth inhibition reads 11.4

Noted for Cc1cc2ccccc2[nH]1 : its growth inhibition reads -15.3

Noted for COc1cc(/C=C/c2ccnnc2)cc(OC)c1OC : its growth inhibition reads 15.3

Noted for Cc1ccc(S(=O)(=O)N2CCSCCN(S(=O)(=O)c3ccc(C)cc3)CCN(S(=O)(=O)c3ccc(C)cc3)CC2)cc1 : its growth inhibition reads -2.7

Noted for C[n+]1cc(-c2ccccc2)cc(-c2ccccc2)c1 : its growth inhibition reads -3.35
